# Assay system: human Orexin 1 receptor (Homo sapiens)
# Construct: stably expressing the full-length human Orexin 1 receptor; expressed in transfected cells; host or cells: CHO-K1 (CHO-K1/hOX1), co-expressing aequorin
# Sequence (O43613 whole entry): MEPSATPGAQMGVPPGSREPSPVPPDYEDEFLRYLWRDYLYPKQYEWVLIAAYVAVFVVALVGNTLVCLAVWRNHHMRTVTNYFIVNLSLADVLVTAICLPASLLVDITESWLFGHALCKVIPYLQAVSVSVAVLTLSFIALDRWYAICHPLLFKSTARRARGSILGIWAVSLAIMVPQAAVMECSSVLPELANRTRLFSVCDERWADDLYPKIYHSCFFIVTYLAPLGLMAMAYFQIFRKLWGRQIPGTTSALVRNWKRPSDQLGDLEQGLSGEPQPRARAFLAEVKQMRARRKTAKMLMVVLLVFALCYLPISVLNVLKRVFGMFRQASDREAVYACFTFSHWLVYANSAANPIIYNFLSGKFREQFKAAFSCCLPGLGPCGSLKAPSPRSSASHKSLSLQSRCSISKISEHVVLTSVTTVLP
# Test details: Assay A: OX1R IP1 (in vitro OX1R potency)
# Type: cell-based
# Assay setup: Table 3; Orexin A concentration 50 nM
Simple rule here: Kb less than 0.5 nM is t, otherwise f.

Ask: Regarding CCN(C(=O)c1nc(C)ccc1-n1nccn1)[C@@H](C)COc1ccc(C(F)(F)F)cn1 [Example 5] , kindly confirm whether its Kb is beneath 0.5 nM.
Result: t

Ask: Regarding CCN(C(=O)c1ccc(C)nc1-n1nccn1)[C@@H](C)COc1ncc(C(F)(F)F)cc1F [Example 60] , kindly confirm whether its Kb is beneath 0.5 nM.
Result: f

Ask: Regarding CCN(C(=O)c1cc(F)cnc1-n1nccn1)[C@@H](C)COc1ccc(C(F)(F)F)cn1 [Example 6] , kindly confirm whether its Kb is beneath 0.5 nM.
Result: f

Ask: Regarding CCN(C(=O)c1nc(C)ccc1-n1nccn1)[C@@H](C)COc1ccc(Cl)cn1 [Example 8] , kindly confirm whether its Kb is beneath 0.5 nM.
Result: t

Ask: Regarding CCN(C(=O)c1cc(Cl)cnc1-n1nccn1)[C@@H](C)COc1ccc(C(F)(F)F)cn1 [Example 72] , kindly confirm whether its Kb is beneath 0.5 nM.
Result: t

Ask: Regarding CCN(C(=O)c1nccc(C(F)(F)F)c1-c1ccn(C)n1)[C@@H](C)COc1ccc(C(F)(F)F)cn1 [Example 50] , kindly confirm whether its Kb is beneath 0.5 nM.
Result: t
